# System: RXF 393 renal
# Protocol: NCI-60 one-dose screen, 48 h (100 = growth as untreated, 0 = no growth, -100 = all killed)
# Assay Context: 10 µM unless noted
This is part of a sample that, as a whole, favours compounds with a hit. Of some 83,000 tested, about 20% had one in any assay.
Please go through the items and note down their growth.
One number for each entry, in %.

Molecule	Measured Number
COc1cc2oc(-c3ccc(O)cc3)cc(=O)c2c(O)c1-c1c(OC)cc(O)c2c(=O)cc(-c3ccc(O)cc3)oc12	-44.1

State the recorded growth for every item in the following list.
1. CCOC(=O)c1sc2ncc(-c3ccc(OC)cc3)n2c1C
2. CCC12CCC[N+]3([O-])CCC4(C(=Nc5ccccc54)C(O)(C(=O)OC)C1)C23 (stereo not given)
3. NCCCNc1nc2ccccc2c2c(=O)c3cccc(F)c3sc12
4. CCOC(=O)c1nc(Nc2ccc(C(C)=O)cc2)sc1C
5. O=CN(SSN(C=O)C1CCCCC1)C1CCCCC1
6. Cc1c(C(=O)N[C@@H](Cc2ccccc2)C(=O)C(=O)NCc2ccc(F)cc2)[nH]c2ccccc2c1=O

a:
111
113
52.4
109
12.4
103

###

# System: RPMI-8226 leukemia
# Protocol: NCI-60 one-dose screen, 48 h (100 = growth as untreated, 0 = no growth, -100 = all killed)
# Assay Context: 10 µM unless noted
The panel holds about 83,000 compounds, 20% with a hit somewhere; the sample as a whole holds those more often. Active and inactive are the calls of the source. The calls were made as follows: active = growth percent below 10; inactive = the rest.
Experimental Readout: growth

// solved cases for growth follow
Compound	growth
CCN(CC)S(=O)(=O)c1ccc(NC(=O)CSc2nnc(C)n2-c2ccccc2)cc1	103% (inactive)
CN(C(=O)NCc1cccc(F)c1Cl)[C@H](COC(=O)Nc1cc2ccccc2cn1)CC(O)CO (stereo not given in full)	119% (inactive)
Cc1c(C(=O)N[C@@H](Cc2ccccc2)C(=O)C(=O)NCc2ccc(F)cc2)[nH]c2ccccc2c1=O	87.9% (inactive)
COc1cc(Nc2nc(NCCN)nc3cc[nH]c(=O)c23)cc(OC)c1	80% (inactive)
Cc1nc2nc(SCC(=O)O)[nH]c2c(=O)[nH]1	96.9% (inactive)

State the recorded growth for every item in the following list.
1. CCc1ccc2nc(NC(=O)Cc3csc(NC(=O)c4ccco4)n3)sc2c1
2. C#Cc1cccc(NC(=O)c2ccc(NC(=O)C=C)cc2)c1
3. CCCCCCN1C(=O)/C(=c2\sc3n(c2=O)C2C(NN=3)N(CC)C(=O)N2CC)c2ccccc21 (stereo not given)
4. c1ccc2c(-c3nc(-c4c[nH]c5ccncc45)cs3)c[nH]c2c1
5. CCCCCCCCCCCCCCCCCCOc1ccccc1CC(=O)OCC[N+](CC)(CC)CC
6. C#Cc1cccc(NC(=O)Nc2ccccc2NC(=O)CCl)c1
7. COc1ccc(-n2c(N)c(-c3nc4ccccc4[nH]3)cc(C#N)c2=O)cc1

a:
["55.8% (inactive)", "60.2% [8.25 µM] (inactive)", "44.6% (inactive)", "10.9% (inactive)", "-3.45% (active)", "10.7% [8.25 µM] (inactive)", "92.3% (inactive)"]

###

# Test system: NCI-H226 lung
# Protocol: NCI-60 one-dose screen, 48 h (100 = growth as untreated, 0 = no growth, -100 = all killed)
# Assay Context: 10 µM unless noted
Compounds without any hit were thinned out: in the full panel of roughly 83,000, 20% have a hit.
Threshold-based label: growth under 80% gives True, growth not under 80% gives False.

Compound	Target System	Class Name
CCCCCCCCCCCCCCCCCCOc1ccc(CC(=O)OCC[N+](C)(C)C)cc1	NCI-H226 lung	False
Cc1ccc2sc3c(NCCCN)nc4ccccc4c3c(=O)c2c1	NCI-H226 lung	False
CC(C)(C)NC(=O)C(OC(=O)c1cccc(Cl)c1)c1ccc(Cl)cc1 (stereo not given)	NCI-H226 lung	False

Field: next compound
q: Dear reviewer, please state whether COc1ccc(-c2csc(NC(=O)N3CCN(c4cc5c(cc4F)c(=O)c(C(=O)O)cn5C4CC4)CC3)n2)cc1 has growth strictly beneath 80%.
a: True
